EXPERIMENT_SUMMARY: BET inhibitor-based combinations targeting novel dependencies in MECOM-rearranged (r) AML: MV-4-11 cell line (AID 2202233); further: nearly all actives have a fitted effect of over 45% in size
EXPERIMENTAL_PARAMETERS: MV-4-11 AML viability, CellTiter-Glo luminescence, 48 h; series mostly up to 46 µM
Inconclusive results are not listed. Activity calls are given as the source filed them. The call rests on the fitted dose curve; in most records, active means well fitted inhibition curve with a large enough effect; inconclusive means small, poorly fitted or top-dose-only effect; inactive means no such curve, though single readings can be large or run the other way. Positions of bridges follow the written chain, without caps; N, C: chain ends. Non-standard residues stand in square brackets, D forms with d. Residues, ends and D or L forms follow the SMILES beside them. ξ: configuration not given here. *: point of attachment. Octanoyl(6-Me) = CCC(C)CCCCC(=O)*; ξThr(3R) = C[C@@H](O)C(N)C(=O)O; dDab = NCC[C@@H](N)C(=O)O; Dab = NCC[C@H](N)C(=O)O
Classes used: 1.0 for active, 0.0 for inactive

1. CN(C)c1nc(N(C)C)nc(N(C)C)n1 ... 0.0
2. CCCC1OC2C[C@@H]3[C@H]4CCC5=CC(=O)C=C[C@]5(C)[C@H]4C(O)C[C@]3(C)[C@]2(C(=O)CO)O1 (stereo partly specified) ... 1.0
3. C[C@@H]1COCCN1c1cc(=O)n2c(n1)N(Cc1cncc(Cl)c1)[C@H](C(F)(F)F)CC2 ... 0.0
4. Cc1nc2cnc3ccc(C#Cc4cccnc4)cc3c2n1-c1ccc(C(C)(C)C#N)cc1 ... 1.0
5. C[C@H]1Oc2cc(cnc2N)-c2c(nn(C)c2C#N)CN(C)C(=O)c2ccc(F)cc21 ... 1.0
6. CCC(C)CCCCC(=O)N[C@@H](CCN)C(=O)NC(C(=O)N[C@H](CCN)C(=O)N[C@@H]1CCNC(=O)C([C@@H](C)O)NC(=O)[C@@H](CCN)NC(=O)[C@@H](CCN)NC(=O)[C@@H](CC(C)C)NC(=O)[C@H](Cc2ccccc2)NC(=O)[C@H](CCN)NC1=O)[C@@H](C)O (stereo partly drawn) ({Octanoyl(6-Me)}-[Dab][ξThr(3R)][dDab][dDab][Dab]F[dL][dDab][dDab][ξThr(3R)]; lactam 4-C) ... 0.0

---

SUBJECT_OF_TEST: Cellular tumor antigen p53 (Homo sapiens)
EXPERIMENT_SUMMARY: Primary qHTS for small molecule compounds that upregulate eGFP-tagged delta133p53alpha (in N-terminal) cells. (AID 2060322);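 further: cells pre-induced with doxycycline then dosed without doxycycline; 0% = DMSO vehicle and 100% = reference activator; nearly all actives have a fitted effect of over 75% in size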
EXPERIMENTAL_PARAMETERS: NCI-H358 eGFP-delta133p53alpha fluorescence, 24 h; stronger effect = higher value
Results filed as inconclusive are left out.
QUANTITY_MEASURED: activation (%)

1) CC(=O)OC1C[C@@]2(C)[C@@H](CC[C@@H](C)[C@]23Cc2c(O)cc4c(c2O3)CNC4=O)C(C)(C)[C@@H]1O (stereo partly drawn) ... 9.92
2) CC1(C)CC[C@]2(C(=O)O)[C@H](O)C[C@]3(C)C(=CCC4[C@@]5(C)CC[C@H](O[C@@H]6OC[C@@H](O)[C@H](O)[C@H]6O)[C@@](C)(C(=O)O)C5CC[C@]43C)[C@@H]2C1 (stereo partly drawn) ... 6.11
3) CC(=O)OC(CSC1CCC(=O)OC(C)CCC(=O)C1)C(=O)O (stereo not drawn) ... -6.87
4) Cc1c(C)c(NCC(=O)N(C)C2CCN(Cc3ccc(C(N)=O)cc3)CC2)c(C)c(C)c1N ... 1.43
5) C[C@@H]1CCC2C(C)(C)[C@H](O)[C@H](O)C[C@]2(C)[C@@]12Cc1c(O)cc3c(c1O2)CN(CCCC(=O)O)C3=O (stereo partly drawn) ... -3.05
6) Cc1[nH]c2ccccc2c1CCNC(=O)c1cccs1 ... -18.1
7) CC(C)(C)NC(=O)[C@H]1CC[C@H]2[C@@H]3CC[C@H]4NC(=O)CC[C@]4(C)[C@H]3CC[C@]12C ... 21.7
8) C/C(=N\O)[C@@H](C)NCC(C)(C)CN[C@H](C)/C(C)=N/O ... -12.6
